Where do these numbers come from? They come from patent US12570675B2.

experimentalSystem: Proteasome chymotrypsin-like activity (S26 protein from RPMI8226 cells) (Homo sapiens, UniProt P28074)
Sequence (P28074 60-263 limits assumed): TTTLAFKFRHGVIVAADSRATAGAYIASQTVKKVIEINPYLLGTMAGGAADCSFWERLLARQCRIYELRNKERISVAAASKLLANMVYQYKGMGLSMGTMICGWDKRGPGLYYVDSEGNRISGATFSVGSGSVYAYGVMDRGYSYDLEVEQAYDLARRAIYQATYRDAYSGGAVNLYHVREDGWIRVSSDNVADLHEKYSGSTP
Assay type: biochemical
particulars: S26 protein from RPMI8226 cell extract 2 ug/well, substrate 20 uM, 37° C., 90 minutes; read-out: Proteasome chymotrypsin-like activity inhibition IC50
Procedure: The abilities to inhibit the proteasome activity of the compounds described in the Examples of the present invention and boronic acid drugs were evaluated as follows. RPMI8226 cells, which is a multiple myeloma cell line, were cultured and then separated by a centrifuge, and washed twice with phosphate buffered saline (PBS). […] The fluorescence of the fluorogenic substrate was measured by FlexStation II Fluorometer (Molecular Devices). […]
pIC50: −log10 of the molar value.
attributeMeasured: pIC50

Examples with answers:
CC(C)C[C@H](NC(=O)C1(Cc2ccccc2)CC(C(C)(C)NC(=O)c2cccn3ccnc23)=NO1)B(O)O (stereo partly drawn) = > 7.00
CC(C)C[C@H](NC(=O)C1(Cc2ccccc2)CC(COCc2ccccn2)=NO1)B(O)O (stereo partly drawn) = > 8.00
CC(C)C[C@H](NC(=O)C1(Cc2ccccc2)CC(CNC(=O)c2ccnn2C(C)C)=NO1)B(O)O (stereo partly drawn) = > 8.00
Cc1cccc(CC2(C(=O)N[C@@H](CC(C)C)B(O)O)CC(CNC(=O)c3cc(C(C)(C)C)nn3C(C)C)=NO2)c1 (stereo partly drawn) = > 8.00
CC(C)C[C@H](NC(=O)C1(CC(C)C)CC(CNC(=O)c2nccc3ccccc23)=NO1)B(O)O (stereo partly drawn) = > 7.60

// Input: Cc1nc(C)c(C(=O)NCC2=NOC(COc3ccccc3)(C(=O)N[C@@H](CC(C)C)B(O)O)C2)s1 (stereo partly drawn) . Output its pIC50 only.
> 8.00

// Input: COc1cccc(COCC2=NOC(Cc3ccccc3)(C(=O)N[C@@H](Cc3ccccc3)B(O)O)C2)c1 (stereo partly drawn) . Output its pIC50 only.
> 8.00

// Input: O=C(NCC1=NOC(Cc2ccccc2)(C(=O)N[C@@H](Cc2ccccc2)B(O)O)C1)c1nccc2ccccc12 (stereo partly drawn) . Output its pIC50 only.
> 8.00

// Input: COc1cccc(-c2cccc(COCC3=NOC(Cc4ccccc4)(C(=O)N[C@@H](CC(C)C)B(O)O)C3)c2)c1 (stereo partly drawn) . Output its pIC50 only.
> 7.60

// Input: CC(C)C[C@H](NC(=O)C1(Cc2ccccc2)CC(CNC(=O)c2cccc3ccccc23)=NO1)B(O)O (stereo partly drawn) . Output its pIC50 only.
> 8.00

// Input: CC(C)C[C@H](NC(=O)C1(Cc2ccccc2)CC(CNC(=O)c2cnc3ccccc3n2)=NO1)B(O)O (stereo partly drawn) . Output its pIC50 only.
> 8.00

// Input: COC[C@H](NC(=O)c1nccc2ccccc12)C1=NOC(Cc2ccccc2)(C(=O)N[C@@H](CC(C)C)B(O)O)C1 (stereo partly drawn) . Output its pIC50 only.
> 8.00

// Input: Cc1nc(C)c(COCC2=NOC(Cc3ccccc3)(C(=O)N[C@@H](CC(C)C)B(O)O)C2)s1 (stereo partly drawn) . Output its pIC50 only.
> 8.00

// Input: COc1cccc(CC2(C(=O)N[C@@H](CC(C)C)B(O)O)CC(CNC(=O)c3nccc4ccccc34)=NO2)c1 (stereo partly drawn) . Output its pIC50 only.
> 8.00

// Input: CC(C)C[C@H](NC(=O)C1CC(c2cccc3ccccc23)=NO1)B(O)O (stereo partly drawn) . Output its pIC50 only.
> 7.00

----------
The entries below come with measured pIC50 values attached.
experimentalSystem: Proteasome chymotrypsin-like activity (S26 protein from RPMI8226 cells) (Homo sapiens, UniProt P28074)
pIC50: −log10 of the molar value.

Examples with answers:
CC(C)C[C@H](NC(=O)C1(Cc2cccc(Cl)c2)CC(CNC(=O)c2nccc3ccccc23)=NO1)B(O)O (stereo partly shown) = > 8.00
Cc1ccc(F)cc1C(=O)NCC1=NOC(Cc2ccccc2)(C(=O)N[C@@H](CC(C)C)B(O)O)C1 (stereo partly shown) = > 8.00
CC(C)C[C@H](NC(=O)C1CC(c2ccc(-c3ccccc3)nc2)=NO1)B(O)O (stereo partly shown) = > 7.00
CC(C)C[C@H](NC(=O)C1(Cc2ccccc2)CC(COc2ccc3ccccc3c2)=NO1)B(O)O (stereo partly shown) = > 7.00
CC(C)C[C@H](NC(=O)C1(Cc2ccccc2)CC(CNC(=O)c2nn(C(C)C)c3ccccc23)=NO1)B(O)O (stereo partly shown) = > 8.00

// Input: CC(C)C[C@H](NC(=O)C1CC(CNC(=O)c2cccc3ccccc23)=NO1)B(O)O (stereo partly shown) . Output its pIC50 only.
> 8.00

// Input: CC(C)C[C@H](NC(=O)C1CC([C@@H](NC(=O)c2cccc3c2CCCC3)C(C)C)=NO1)B(O)O (stereo partly shown) . Output its pIC50 only.
> 7.60

----------
Quick record: IC50, Proteasome chymotrypsin-like activity (S26 protein from RPMI8226 cells) (Homo sapiens).

CC(C)C[C@H](NC(=O)C1(Cc2ccccc2)CC(CNS(=O)(=O)c2cccc3cccnc23)=NO1)B(O)O (stereo partly drawn) = < 10 nM
CC(C)C[C@H](NC(=O)C1(Cc2ccccc2)CC(CNC(=O)CCc2ccccc2)=NO1)B(O)O (stereo partly drawn) = < 25 nM
CC(C)C[C@H](NC(=O)C1(Cc2ccccc2)CC(COCc2cccc(C#N)c2)=NO1)B(O)O (stereo partly drawn) = < 10 nM
COc1ccc(COCC2=NOC(Cc3ccccc3)(C(=O)N[C@@H](CC(C)C)B(O)O)C2)cc1 (stereo partly drawn) = < 100 nM
CC(C)C[C@H](NC(=O)C1CC(c2ccccc2)=NO1)B(O)O (stereo partly drawn) = < 500 nM
CC(C)C[C@H](NC(=O)C1(Cc2ccccc2)CC(COCc2cccc(Cl)c2)=NO1)B(O)O (stereo partly drawn) = < 50 nM

With Proteasome chymotrypsin-like activity (S26 protein from RPMI8226 cells) (Homo sapiens) as the test system, provide measured IC50 for this compound: CC(C)C[C@H](NC(=O)C1CC(CNC(=O)c2ccc3ccccc3c2)=NO1)B(O)O (stereo partly drawn)
< 25 nM

With Proteasome chymotrypsin-like activity (S26 protein from RPMI8226 cells) (Homo sapiens) as the test system, provide measured IC50 for this compound: CC(C)C[C@H](NC(=O)C1(Cc2ccccc2)CC(CNC(=O)c2cccn3cnnc23)=NO1)B(O)O (stereo partly drawn)
< 10 nM

With Proteasome chymotrypsin-like activity (S26 protein from RPMI8226 cells) (Homo sapiens) as the test system, provide measured IC50 for this compound: CC(C)C[C@H](NC(=O)C1(Cc2ccccc2)CC(CNC(=O)c2ccc3c(ccn3C(C)C)c2)=NO1)B(O)O (stereo partly drawn)
< 10 nM

----------
Quick record: IC50, Proteasome chymotrypsin-like activity (S26 protein from RPMI8226 cells) (Homo sapiens).

Examples with answers:
COc1ccccc1-c1cccc(COCC2=NOC(Cc3ccccc3)(C(=O)N[C@@H](CC(C)C)B(O)O)C2)c1 (stereo partly drawn) = < 25 nM
N#Cc1cccc(COCC2=NOC(Cc3ccccc3)(C(=O)N[C@@H](Cc3ccccc3)B(O)O)C2)c1 (stereo partly drawn) = < 10 nM

// Input: CC(C)C[C@H](NC(=O)C1CC(c2ccnc3ccccc23)=NO1)B(O)O (stereo partly drawn) . Output its IC50 only.
< 250 nM

// Input: CC(C)C[C@H](NC(=O)C1(Cc2ccccc2)CC(CNC(=O)c2ccnc(Cl)c2)=NO1)B(O)O (stereo partly drawn) . Output its IC50 only.
< 10 nM

// Input: CC(C)C[C@H](NC(=O)C1(C)CC(CNC(=O)c2cc(Cl)ccc2Cl)=NO1)B(O)O (stereo partly drawn) . Output its IC50 only.
< 50 nM

// Input: CC(C)C[C@H](NC(=O)C1(Cc2ccccc2)CC(COCc2cc(Cl)ccc2Cl)=NO1)B(O)O (stereo partly drawn) . Output its IC50 only.
< 10 nM

// Input: CC(C)C[C@H](NC(=O)C1(Cc2ccccc2)CC(CNC(=O)Cc2ccccc2)=NO1)B(O)O (stereo partly drawn) . Output its IC50 only.
< 10 nM

// Input: CC(C)C[C@H](NC(=O)C1(Cc2ccccc2)CC(CNC(=O)c2cccc(-c3ccccc3)c2)=NO1)B(O)O (stereo partly drawn) . Output its IC50 only.
< 10 nM

// Input: CC(C)C[C@H](NC(=O)C1(Cc2ccccc2)CC(COc2cccc3ccccc23)=NO1)B(O)O (stereo partly drawn) . Output its IC50 only.
< 10 nM

----------
experimentalSystem: Proteasome caspase-like activity (S26 protein from RPMI8226 cells) (Homo sapiens (Human), UniProt P28072)
Sequence (P28072 whole entry): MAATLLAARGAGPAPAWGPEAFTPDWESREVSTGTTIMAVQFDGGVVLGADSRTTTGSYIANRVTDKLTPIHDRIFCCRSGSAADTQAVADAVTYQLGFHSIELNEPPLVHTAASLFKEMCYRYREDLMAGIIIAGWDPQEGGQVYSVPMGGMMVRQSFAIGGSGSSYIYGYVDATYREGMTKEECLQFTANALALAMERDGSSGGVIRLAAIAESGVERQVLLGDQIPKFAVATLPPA
attributeMeasured: IC50

CC(C)C[C@H](NC(=O)C1(Cc2ccccc2)CC(CNC(=O)c2cc(-c3ccccc3)nn2C(C)C)=NO1)B(O)O (stereo partly drawn) [Example 207] = > 250 nM
CC(C)C[C@H](NC(=O)C1CC(CNC(=O)c2cc(Cl)ccc2Cl)=NO1)B(O)O (stereo partly drawn) [Example 68] = > 500 nM
CC(C)C[C@H](NC(=O)C1CC([C@H](CC(C)C)NC(=O)c2cc(Cl)ccc2Cl)=NO1)B(O)O (stereo partly drawn) [Example 74] = > 500 nM
CC(C)C[C@H](NC(=O)C1CC(CNC(=O)c2nccc3ccccc23)=NO1)B(O)O (stereo partly drawn) [Example 61] = > 500 nM
Cc1nc2ccccn2c1C(=O)NCC1=NOC(Cc2ccccc2)(C(=O)N[C@@H](CC(C)C)B(O)O)C1 (stereo partly drawn) [Example 133] = > 500 nM
CC(C)C[C@H](NC(=O)C1(Cc2ccccc2)CC([C@H](CC(C)C)NC(=O)c2nccc3ccccc23)=NO1)B(O)O (stereo partly drawn) [Example 152] = > 1000 nM

// Input: CC(C)C[C@H](NC(=O)C1(Cc2ccccc2)CC(CNC(=O)c2cccc3ncccc23)=NO1)B(O)O (stereo partly drawn) [Example 116] . Output its IC50 only.
> 2500 nM

// Input: CC(C)C[C@H](NC(=O)C1(Cc2ccccc2)CC(CNC(=O)c2ccnc3c2ccn3C(C)C)=NO1)B(O)O (stereo partly drawn) [Example 211] . Output its IC50 only.
> 500 nM

// Input: CC(C)C[C@H](NC(=O)C1(Cc2ccccc2)CC(CNC(=O)c2cc(C(F)(F)F)ccc2Cl)=NO1)B(O)O (stereo partly drawn) [Example 112] . Output its IC50 only.
> 2500 nM

// Input: CC(C)C[C@H](NC(=O)C1(COc2ccccc2)CC(CNC(=O)c2nccc3ccccc23)=NO1)B(O)O (stereo partly drawn) [Example 126] . Output its IC50 only.
> 500 nM

// Input: CC(C)C[C@H](NC(=O)C1CC(CNC(=O)c2cccc(Oc3ccccc3)c2)=NO1)B(O)O (stereo partly drawn) [Example 71] . Output its IC50 only.
> 250 nM

// Input: CC(C)C[C@H](NC(=O)C1(Cc2ccccc2)CC(CNC(=O)c2cccc3[nH]ccc23)=NO1)B(O)O (stereo partly drawn) [Example 127] . Output its IC50 only.
> 500 nM
